Biological target: 2,3-epoxysqualene-lanosterol-cyclase (Rattus norvegicus, UniProt P48450)
Construct: The quantity of 2,3-epoxysqualene formed therefore serves as a direct measurement of the potency on the animal as a whole; from tissue; host or cells: living rat; 2,3-epoxysqualene measured in the liver
Sequence (P48450 1-733): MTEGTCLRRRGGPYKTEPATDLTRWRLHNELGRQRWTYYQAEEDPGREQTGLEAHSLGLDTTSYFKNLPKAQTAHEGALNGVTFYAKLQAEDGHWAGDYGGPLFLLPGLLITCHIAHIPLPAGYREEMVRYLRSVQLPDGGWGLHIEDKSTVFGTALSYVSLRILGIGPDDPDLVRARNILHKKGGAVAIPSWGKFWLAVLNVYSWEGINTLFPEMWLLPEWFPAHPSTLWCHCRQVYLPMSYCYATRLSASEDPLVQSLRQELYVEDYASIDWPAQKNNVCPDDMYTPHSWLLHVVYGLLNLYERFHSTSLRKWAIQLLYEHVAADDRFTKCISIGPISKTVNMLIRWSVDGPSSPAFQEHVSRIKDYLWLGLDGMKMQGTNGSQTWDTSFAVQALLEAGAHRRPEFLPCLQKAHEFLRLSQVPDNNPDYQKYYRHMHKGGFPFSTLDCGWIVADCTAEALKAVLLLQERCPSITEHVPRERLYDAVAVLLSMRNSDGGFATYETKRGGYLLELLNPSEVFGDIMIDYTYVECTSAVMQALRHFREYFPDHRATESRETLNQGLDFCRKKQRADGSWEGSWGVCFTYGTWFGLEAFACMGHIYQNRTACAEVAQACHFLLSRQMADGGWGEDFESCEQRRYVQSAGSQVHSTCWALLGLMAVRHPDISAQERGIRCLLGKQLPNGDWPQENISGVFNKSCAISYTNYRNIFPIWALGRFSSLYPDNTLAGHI
Experiment: In-vivo activity in the rat after oral administration: 2,3-epoxysqualene level in the liver
Conditions: c=0.1 mg/kg, t=8 h
I'd appreciate it if you marked entries condition met when 2,3-epoxysqualene concentration in the liver (rat) is lower than 2 µg/g and condition not met when it is not.

Some entries whose results are on file:
INSERT INTO assay_data (compound, group_label) VALUES
  ('Cc1ccc(OC(=O)N2CCC(Cc3ccc(CN(C)C)cc3)CC2)cc1.Cl', 'condition met'),
  ('CN(C)Cc1ccc(CC2CCN(C(=S)SCc3ccccc3)CC2)cc1.Cl [(E)]', 'condition not met'),
  ('CN(C)Cc1ccc(CC2CCN(C(=S)Oc3ccc(Cl)cc3)CC2)cc1.Cl', 'condition not met');

Would you kindly verify if 2,3-epoxysqualene concentration in the liver (rat) of CN(C)Cc1ccc(CC2CCN(C(=O)Oc3ccc(Cl)cc3)CC2)cc1.Cl is strictly less than 2 µg/g?
condition met

Would you kindly verify if 2,3-epoxysqualene concentration in the liver (rat) of CN(C)Cc1ccc(SC2CCN(C(=O)Oc3ccc(Cl)cc3)CC2)cc1.Cl is strictly less than 2 µg/g?
condition met

Would you kindly verify if 2,3-epoxysqualene concentration in the liver (rat) of CN(C)Cc1ccc(SC2CCN(C(=O)OCc3ccccc3)CC2)cc1.Cl is strictly less than 2 µg/g?
condition met

---

Target: 2,3-epoxysqualene-lanosterol-cyclase (Rattus norvegicus)
Construct: The quantity of 2,3-epoxysqualene formed therefore serves as a direct measurement of the potency on the animal as a whole; from tissue; host or cells: living rat; 2,3-epoxysqualene measured in the liver
Sequence (P48450 1-733): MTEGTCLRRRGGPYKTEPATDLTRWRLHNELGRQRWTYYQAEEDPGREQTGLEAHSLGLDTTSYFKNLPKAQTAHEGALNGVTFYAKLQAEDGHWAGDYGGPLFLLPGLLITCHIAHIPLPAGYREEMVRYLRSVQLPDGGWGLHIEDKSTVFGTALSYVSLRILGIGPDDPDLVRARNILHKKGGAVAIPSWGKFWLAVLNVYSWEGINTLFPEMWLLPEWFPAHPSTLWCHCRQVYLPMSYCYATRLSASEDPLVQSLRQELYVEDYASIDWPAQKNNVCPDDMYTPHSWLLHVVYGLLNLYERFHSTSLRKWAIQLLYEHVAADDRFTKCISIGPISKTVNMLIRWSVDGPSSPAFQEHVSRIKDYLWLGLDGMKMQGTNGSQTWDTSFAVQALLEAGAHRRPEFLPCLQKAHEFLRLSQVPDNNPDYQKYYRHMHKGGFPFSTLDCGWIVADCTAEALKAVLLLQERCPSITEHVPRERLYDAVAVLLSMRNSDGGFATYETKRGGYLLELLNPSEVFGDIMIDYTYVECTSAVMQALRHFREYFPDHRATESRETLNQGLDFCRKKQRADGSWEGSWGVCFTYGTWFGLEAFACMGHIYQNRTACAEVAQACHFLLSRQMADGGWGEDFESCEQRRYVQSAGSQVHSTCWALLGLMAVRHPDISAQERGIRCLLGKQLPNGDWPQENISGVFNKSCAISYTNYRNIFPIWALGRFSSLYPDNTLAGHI
Assay: In-vivo activity in the rat after oral administration: 2,3-epoxysqualene level in the liver
Settings: c=1.0 mg/kg, t=8 h
Given measured 2,3-epoxysqualene concentration in the liver (rat), output true if it is greater than or equal to 10 µg/g and false if not.

INSERT INTO measurements (structure_notation, group_label) VALUES
  ('CN(C)Cc1ccc(C(=O)C2CCN(C(=S)SCc3ccccc3)CC2)cc1.Cl', 'true'),
  ('CN(C)Cc1ccc(CC2CCN(C(=S)Oc3ccc(Cl)cc3)CC2)cc1.Cl', 'true'),
  ('CN(C)Cc1ccc(SC2CCN(C(=O)OCc3ccccc3)CC2)cc1.Cl', 'false'),
  ('Cc1ccc(OC(=O)N2CCC(Cc3ccc(CN(C)C)cc3)CC2)cc1.Cl', 'false');

Evaluate CN(C)Cc1ccc(CC2CCN(C(=O)Oc3ccc(Cl)cc3)CC2)cc1.Cl : 2,3-epoxysqualene concentration in the liver (rat) at minimum 10 µg/g?
true

Entry source: patent US6339096B1
